# System: TNF production
# protocolText: Inhibition of LPS-stimulated TNF production in the human monocytic cell line THP-1 (ELISA)
# Type: cell-based
# condition: LPS-stimulated THP-1 cells; 10 µM
assayMetric: effectiveness against LPS-stimulated TNF production (in words)

compound: COc1ccc([C@@H]2Sc3ccccc3N(CCN(C)C)C(=O)[C@@H]2OC(C)=O)cc1 [Diltiazem]
resultValue: much less effective
//
compound: COC(=O)C1=C(C)NC(C)=C(C(=O)OC(C)C)C1c1cccc2nonc12 (stereo not shown) [Isradipine]
resultValue: much less effective
